These entries and their values trace back to patent US8404691B2.

Reported MS (human) % (metabolic stability, residual percentage of compound) by item:
test: Metabolic stability test (microsomal metabolism); type: in vitro ADME; conditions: human liver microsomes, 37° C., 30 minutes after addition of NADP+; also: tested at 1.1 µM
quantity.kind: MS (human) % (metabolic stability, residual percentage of compound) (%)

[
  {
    "query.smiles": "CC[C@H]1CNC2(CC2)CN1C(=O)[C@@H]1C[C@@H](F)CN1C(=O)C1=C(C(C)C)N2C(=N[C@@](C)(c3ccc(Cl)nc3)[C@H]2c2ccc(Cl)c(F)c2)S1",
    "quantitative.result": 100
  },
  {
    "query.smiles": "CC(C)C1=C(C(=O)N2C[C@H](F)C[C@H]2C(=O)N2CC3(CC3)NC[C@H]2C(=O)O)SC2=N[C@@](C)(c3ccc(Cl)nc3)[C@@H](c3ccc(Cl)c(F)c3)N21",
    "quantitative.result": 100
  },
  {
    "query.smiles": "CC(C)C1=C(C(=O)N2C[C@H](F)C[C@H]2C(=O)N2CC3(CC3)NC[C@@H]2C)SC2=N[C@@](C)(c3ccc(Cl)cc3)[C@@H](c3ccc(Cl)c(F)c3)N21",
    "quantitative.result": 89
  },
  {
    "query.smiles": "CC[C@@H]1CNC2(CC2)CN1C(=O)[C@@H]1C[C@@H](F)CN1C(=O)C1=C(C(C)C)N2C(=N[C@@](C)(c3ccc(Cl)nc3)[C@H]2c2ccc(Cl)cc2)S1",
    "quantitative.result": 62
  },
  {
    "query.smiles": "CC(C)C1=C(C(=O)N2C[C@H](F)C[C@H]2C(=O)N2CC3(CC3)NCC23CC3)SC2=N[C@@](C)(c3ccc(Cl)nc3)[C@@H](c3ccc(Cl)c(F)c3)N21",
    "quantitative.result": 95
  },
  {
    "query.smiles": "CC(C)C1=C(C(=O)N2C[C@H](F)C[C@H]2C(=O)N2CC3(CC3)N(C)C[C@@H]2C)SC2=N[C@@](C)(c3ccc(Cl)nc3)[C@@H](c3ccc(Cl)c(F)c3)N21",
    "quantitative.result": 56
  },
  {
    "query.smiles": "CC[C@@H]1CNC2(CC2)CN1C(=O)[C@@H]1C[C@@H](F)CN1C(=O)C1=C(C(C)C)N2C(=N[C@@](C)(c3ccc(Cl)cc3)[C@H]2c2ccc(Cl)cc2)S1",
    "quantitative.result": 60
  },
  {
    "query.smiles": "CC(C)C1=C(C(=O)N2C[C@H](F)C[C@H]2C(=O)N2CC3(CC3)N(C)C[C@H]2C)SC2=N[C@@](C)(c3ccc(Cl)nc3)[C@@H](c3ccc(Cl)c(F)c3)N21",
    "quantitative.result": 44
  },
  {
    "query.smiles": "CC(C)C1=C(C(=O)N2C[C@H](F)C[C@H]2C(=O)N2CC3(CC3)NC[C@H]2C)SC2=N[C@@](C)(c3ccc(Cl)cc3)[C@@H](c3ccc(Cl)c(F)c3)N21",
    "quantitative.result": 47
  },
  {
    "query.smiles": "CC(C)C1=C(C(=O)N2C[C@H](F)C[C@H]2C(=O)N2CC3(CC3)NC[C@@H]2CF)SC2=N[C@@](C)(c3ccc(Cl)nc3)[C@@H](c3ccc(Cl)c(F)c3)N21",
    "quantitative.result": 6
  },
  {
    "query.smiles": "CC(C)C[C@@H]1CNC2(CC2)CN1C(=O)[C@@H]1C[C@@H](F)CN1C(=O)C1=C(C(C)C)N2C(=N[C@@](C)(c3ccc(Cl)nc3)[C@H]2c2ccc(Cl)c(F)c2)S1",
    "quantitative.result": 100
  },
  {
    "query.smiles": "CC[C@H]1CNC2(CC2)CN1C(=O)[C@@H]1C[C@@H](F)CN1C(=O)C1=C(C(C)C)N2C(=N[C@@](C)(c3ccc(Cl)cc3)[C@H]2c2ccc(Cl)cc2)S1",
    "quantitative.result": 96
  },
  {
    "query.smiles": "CC(C)C1=C(C(=O)N2C[C@H](F)C[C@H]2C(=O)N2CC3(CC3)NC[C@H]2C)SC2=N[C@@](C)(c3ccc(Cl)nc3)[C@@H](c3ccc(Cl)cc3)N21",
    "quantitative.result": 51
  },
  {
    "query.smiles": "CC[C@@H]1CNC2(CC2)CN1C(=O)[C@@H]1C[C@@H](F)CN1C(=O)C1=C(C(C)C)N2C(=N[C@@](C)(c3ccc(Cl)nc3)[C@H]2c2ccc(Cl)c(F)c2)S1",
    "quantitative.result": 69
  },
  {
    "query.smiles": "CC(C)C1=C(C(=O)N2C[C@H](F)C[C@H]2C(=O)N2CC3(CC3)NC[C@H]2CO)SC2=N[C@@](C)(c3ccc(Cl)nc3)[C@@H](c3ccc(Cl)c(F)c3)N21",
    "quantitative.result": 69
  },
  {
    "query.smiles": "CC[C@H]1CNC2(CC2)CN1C(=O)[C@@H]1C[C@@H](F)CN1C(=O)C1=C(C(C)C)N2C(=N[C@@](C)(c3ccc(Cl)nc3)[C@H]2c2ccc(Cl)cc2)S1",
    "quantitative.result": 96
  },
  {
    "query.smiles": "CC(C)C1=C(C(=O)N2C[C@H](F)C[C@H]2C(=O)N2CCNC3(CC3)C2)SC2=N[C@@](C)(c3ccc(Cl)nc3)[C@@H](c3ccc(Cl)c(F)c3)N21",
    "quantitative.result": 77
  },
  {
    "query.smiles": "CC(C)C1=C(C(=O)N2CC(F)(F)C[C@H]2C(=O)N2CC3(CC3)NC[C@@H]2C)SC2=N[C@@](C)(c3ccc(Cl)nc3)[C@@H](c3ccc(Cl)c(F)c3)N21",
    "quantitative.result": 80
  },
  {
    "query.smiles": "CC(C)C1=C(C(=O)N2C[C@H](F)C[C@H]2C(=O)N2CC3(CC3)NC[C@@H]2C(=O)O)SC2=N[C@@](C)(c3ccc(Cl)nc3)[C@@H](c3ccc(Cl)c(F)c3)N21.Cl.Cl",
    "quantitative.result": 100
  },
  {
    "query.smiles": "CC(C)C1=C(C(=O)N2C[C@H](F)C[C@H]2C(=O)N2CCN(C)C3(CC3)C2)SC2=N[C@@](C)(c3ccc(Cl)nc3)[C@@H](c3ccc(Cl)c(F)c3)N21",
    "quantitative.result": 44
  }
]

---

Entries and their IC50 values follow.
target: Mdm2/p53 binding (Homo sapiens, UniProt Q00987, L33E); construct: Mdm2 amino acids at positions 25 to 108; assay: Mdm2/p53 binding assay (HTRF, His-p53 and GST-Mdm2); details: His-p53 (aa 1-132) and GST-Mdm2 (aa 25-108, L33E), 6.25 nM each, 25° C. for 1 hour
Sequence (Q00987 25-108 L33E): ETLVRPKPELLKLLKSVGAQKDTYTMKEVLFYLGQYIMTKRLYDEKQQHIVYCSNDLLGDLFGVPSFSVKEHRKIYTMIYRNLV

[
  {
    "query.smiles": "CC[C@@H]1CNC2(CC2)CN1C(=O)[C@@H]1C[C@@H](F)CN1C(=O)C1=C(C(C)C)N2C(=N[C@@](C)(c3ccc(Cl)nc3)[C@H]2c2ccc(Cl)cc2)S1",
    "IC50 [nM]": 3.1
  },
  {
    "query.smiles": "CC(C)C1=C(C(=O)N2C[C@H](F)C[C@H]2C(=O)N2CC3(CC3)NC[C@@H]2CO)SC2=N[C@@](C)(c3ccc(Cl)nc3)[C@@H](c3ccc(Cl)c(F)c3)N21",
    "IC50 [nM]": 3.2
  },
  {
    "query.smiles": "CC(C)C1=C(C(=O)N2C[C@H](F)C[C@H]2C(=O)N2CC3(CC3)N(C)C[C@@H]2C)SC2=N[C@@](C)(c3ccc(Cl)nc3)[C@@H](c3ccc(Cl)c(F)c3)N21",
    "IC50 [nM]": 2.3
  },
  {
    "query.smiles": "CC(C)C1=C(C(=O)N2C[C@H](F)C[C@H]2C(=O)N2CC3(CC3)NC[C@H]2C)SC2=N[C@@](C)(c3ccc(Cl)nc3)[C@@H](c3ccc(Cl)cc3)N21",
    "IC50 [nM]": 3.1
  },
  {
    "query.smiles": "CC(C)C1=C(C(=O)N2C[C@H](F)C[C@H]2C(=O)N2CC3(CC3)NC[C@@H]2C)SC2=N[C@@](C)(c3ccc(Cl)nc3)[C@@H](c3ccc(Cl)cc3)N21",
    "IC50 [nM]": 1.9
  }
]
